Entry source: ChEMBL document CHEMBL3885861

# Organism: Rattus norvegicus
# EXPERIMENT: Open TG-GATES - Regimen: Daily Repeat
# Format: toxicity, organism-based, Sprague-Dawley
# Parameters: regimen Daily Repeat, gender Male, age 6 weeks
# CONDITION_LABEL: in vivo, po, 100 mg/kg, […], tissue Blood, route gavage, dose level Low, time 7 day
RESULT_TYPE: Hb (g/dL)
// return numeric value only (unit: g/dL, not printed)

Provide Hb value for the following molecule: `NC(N)=Nc1nc(CSCCC(N)=NS(N)(=O)=O)cs1`
13.5

Provide Hb value for the following molecule: COc1ccc2[nH]c([S+]([O-])Cc3ncc(C)c(OC)c3C)nc2c1 (stereo not drawn)
13.5

Provide Hb value for the following molecule: CCOc1ccc(NC(=O)CC(C)O)cc1 (stereo not drawn)
13.4

---

# Species on record: Rattus norvegicus
# EXPERIMENT: Open TG-GATES - Regimen: Single
# Assay type: toxicity, organism-based, Sprague-Dawley
# Parameters: regimen Single, gender Male, age 6 weeks
# CONDITION_LABEL: in vivo, po, 10 mg/kg, 9 h, tissue Plasma, route gavage, dose level Low
RESULT_TYPE: AST
Value and unit, in that order.

Examples from the recorded data:
Provide AST value for the following compound: `CN(C)CCCN1c2ccccc2CCc2ccc(Cl)cc21`
67.8 IU/L

Provide AST value for the following compound: `CC1=C(/C=C/C(C)=C/C=C/C(C)=C/CO)C(C)(C)CCC1`
70.6 IU/L

Provide AST value for the following compound: CC(C)OC(=O)C(C)(C)Oc1ccc(C(=O)c2ccc(Cl)cc2)cc1 [FENOFIBRATE]
77.4 IU/L

New cases:
Provide AST value for the following compound: `CN(C)CCCN1c2ccccc2CCc2ccccc21`
66.2 IU/L

---

# Species: Rattus norvegicus
# EXPERIMENT: Open TG-GATES - Regimen: Single
# Format: toxicity, organism-based, Sprague-Dawley
# Parameters: regimen Single, gender Male, age 6 weeks
# CONDITION_LABEL: in vivo, po, 0 mg/kg, 9 h, tissue Kidney, route gavage, dose level Control
KIDNEY_TOTAL listing for selected molecules.
// return numeric value only (unit: g, not printed)

Examples from the recorded data:
Provide KIDNEY_TOTAL value for the following molecule: CCOc1ccc(NC(=O)CC(C)O)cc1 (stereo not drawn) [BUCETIN]
1.8

Provide KIDNEY_TOTAL value for the following molecule: CN(C)CCCN1c2ccccc2CCc2ccc(Cl)cc21 [CLOMIPRAMINE]
2

New cases:
Provide KIDNEY_TOTAL value for the following molecule: COC1=CC(=O)C[C@@H](C)[C@]12Oc1c(Cl)c(OC)cc(OC)c1C2=O [GRISEOFULVIN]
1.9

---

# Species on record: Rattus norvegicus
# EXPERIMENT: Open TG-GATES - Regimen: Daily Repeat
# Format: toxicity, organism-based, Sprague-Dawley
# Parameters: regimen Daily Repeat, gender Male, age 6 weeks
# CONDITION_LABEL: in vivo, po, 0 mg/kg, […], tissue Plasma, route gavage, dose level Control, time 7 day
TC listing for selected molecules.
// return numeric value only (unit: mg/dL, not printed)

Examples from the recorded data:
Provide TC value for the following molecule: CCOC(=O)CCC(=O)O[C@H]1[C@H](O[C@@H]2[C@@H](C)[C@H](O[C@H]3C[C@@](C)(OC)[C@@H](O)[C@H](C)O3)[C@@H](C)C(=O)O[C@H](CC)[C@@](C)(O)[C@H](O)[C@@H](C)C(=O)[C@H](C)C[C@@]2(C)O)O[C@H](C)C[C@@H]1N(C)C [ERYTHROMYCIN ETHYLSUCCINATE]
70.8

Provide TC value for the following molecule: COC1=CC(=O)C[C@@H](C)[C@]12Oc1c(Cl)c(OC)cc(OC)c1C2=O [GRISEOFULVIN]
75.8

The record that follows has no TC shown yet.
Provide TC value for the following molecule: CC1=C(/C=C/C(C)=C/C=C/C(C)=C/CO)C(C)(C)CCC1 [RETINOL]
74

---

# Species: Rattus norvegicus
# EXPERIMENT: Open TG-GATES - Regimen: Single
# Format: toxicity, organism-based, Sprague-Dawley
# Set-up: regimen Single, gender Male, age 6 weeks
# CONDITION_LABEL: in vivo, po, 0 mg/kg, 6 h, tissue Plasma, route gavage, dose level Control
RALB listing for selected compounds.
// return numeric value only (unit: g/dL, not printed)

Provide RALB value for the following compound: `CC1=C(/C=C/C(C)=C/C=C/C(C)=C/CO)C(C)(C)CCC1`
3.2

New cases:
Provide RALB value for the following compound: CCOc1ccc(NC(=O)CC(C)O)cc1 (centres undefined)
2.5

Provide RALB value for the following compound: `C[C@@H]1C[C@H]2[C@@H]3CCC4=CC(=O)C=C[C@]4(C)[C@@]3(F)[C@@H](O)C[C@]2(C)[C@@]1(O)C(=O)CO`
3.9

Provide RALB value for the following compound: `Cc1ccc(C)c(OCCCC(C)(C)C(=O)O)c1`
2.7

---

TG listing for selected compounds.
# Organism: Rattus norvegicus
# EXPERIMENT: Open TG-GATES - Regimen: Daily Repeat
# Type: toxicity, organism-based, Sprague-Dawley
# Parameters: regimen Daily Repeat, gender Male, age 6 weeks
# CONDITION_LABEL: in vivo, po, 100 mg/kg, […], tissue Plasma, route gavage, dose level Low, time 28 day

Provide TG value for the following compound: `COC1=CC(=O)C[C@@H](C)[C@]12Oc1c(Cl)c(OC)cc(OC)c1C2=O`
82 mg/dL

New cases:
Provide TG value for the following compound: CCOC(=O)CCC(=O)O[C@H]1[C@H](O[C@@H]2[C@@H](C)[C@H](O[C@H]3C[C@@](C)(OC)[C@@H](O)[C@H](C)O3)[C@@H](C)C(=O)O[C@H](CC)[C@@](C)(O)[C@H](O)[C@@H](C)C(=O)[C@H](C)C[C@@]2(C)O)O[C@H](C)C[C@@H]1N(C)C [ERYTHROMYCIN ETHYLSUCCINATE]
127.4 mg/dL

Provide TG value for the following compound: CCOc1ccc(NC(=O)CC(C)O)cc1 (stereo not drawn)
145 mg/dL

---

# Species on record: Rattus norvegicus
# EXPERIMENT: Open TG-GATES - Regimen: Single
# Format: toxicity, organism-based, Sprague-Dawley
# Set-up: regimen Single, gender Male, age 6 weeks
# CONDITION_LABEL: in vivo, po, 0 mg/kg, 3 h, tissue Blood, route gavage, dose level Control
Eos listing for selected compounds.
// return numeric value only (unit: %, not printed)

Examples from the recorded data:
Provide Eos value for the following compound: `CN(C)CCCN1c2ccccc2CCc2ccc(Cl)cc21`
0.8

Provide Eos value for the following compound: CC(C)OC(=O)C(C)(C)Oc1ccc(C(=O)c2ccc(Cl)cc2)cc1 [FENOFIBRATE]
0.8

The record that follows has no Eos shown yet.
Provide Eos value for the following compound: `O=C(CCCN1CCC(O)(c2ccc(Cl)cc2)CC1)c1ccc(F)cc1`
0

---

KIDNEY_R listing for selected compounds.
# Species: Rattus norvegicus
# EXPERIMENT: Open TG-GATES - Regimen: Single
# Assay type: toxicity, organism-based, Sprague-Dawley
# Design: regimen Single, gender Male, age 6 weeks
# CONDITION_LABEL: in vivo, po, 0 mg/kg, 6 h, tissue Kidney, route gavage, dose level Control
// return numeric value only (unit: g, not printed)

Provide KIDNEY_R value for the following compound: `NC(N)=Nc1nc(CSCCC(N)=NS(N)(=O)=O)cs1`
1

Provide KIDNEY_R value for the following compound: CCOc1ccc(NC(=O)CC(C)O)cc1 (stereo not given)
0.9

Provide KIDNEY_R value for the following compound: CCCNC(=O)NS(=O)(=O)c1ccc(Cl)cc1 [CHLORPROPAMIDE]
0.9

Provide KIDNEY_R value for the following compound: `CC1=C(/C=C/C(C)=C/C=C/C(C)=C/CO)C(C)(C)CCC1`
1

New cases:
Provide KIDNEY_R value for the following compound: `CN(C)CCCN1c2ccccc2CCc2ccc(Cl)cc21`
1

---

# Organism: Rattus norvegicus
# EXPERIMENT: Open TG-GATES - Regimen: Single
# Assay type: toxicity, organism-based, Sprague-Dawley
# Design: regimen Single, gender Male, age 6 weeks
# CONDITION_LABEL: in vivo, po, 0 mg/kg, 6 h, tissue Blood, route gavage, dose level Control
RESULT_TYPE: Fbg (mg/dL)
// return numeric value only (unit: mg/dL, not printed)

Provide Fbg value for the following compound: C[C@@H]1C[C@H]2[C@@H]3CCC4=CC(=O)C=C[C@]4(C)[C@@]3(F)[C@@H](O)C[C@]2(C)[C@@]1(O)C(=O)CO [DEXAMETHASONE]
234.6

Provide Fbg value for the following compound: `CN(C)CCN(Cc1cccs1)c1ccccn1`
303

New cases:
Provide Fbg value for the following compound: CC(C)OC(=O)C(C)(C)Oc1ccc(C(=O)c2ccc(Cl)cc2)cc1 [FENOFIBRATE]
268.2

Provide Fbg value for the following compound: COc1cc2c(c(OC)c1OC)-c1ccc(OC)c(=O)cc1[C@@H](NC(C)=O)CC2 [COLCHICINE]
222.4
